ASSAYED_SYSTEM: Aminopeptidase N (Plasmodium falciparum (isolate 3D7))
EXPERIMENT_NOTES: malaria alanyl aminopeptidase activity blockers – biochemical, fluorogenic H-Leu-NHMec substrate, 1536-well (AID 1445);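 also: plate controls were DMSO full reaction for no effect and no enzyme background for full effect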
TEST_PARAMETERS: recombinant M1AAP, H-Leu-NHMec fluorogenic kinetic assay; at 30 µM
The campaign covered roughly 220,000 compounds. About 910 (0.41%) were called active.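 The calls were made as follows: active = primary inhibition above the hit cutoff, then over 50% inhibition at one or more dose response concentrations (cut at about 23% in these data, passing the limit was not always enough); inconclusive = conflicting primary data, or primary hits not chosen for dose response; inactive = low primary inhibition, or under 50% at every dose.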 The sample as a whole holds a higher share of actives than the screen did. Results with a measured potency or affinity are listed apart.
One label from this list, please: active, inactive

compound=O=C(NN=C1CCCCCC1)NC1CCCCC1 category_label=inactive
compound=C=CCc1cccc2cc(C(=O)NNC(=O)c3ccncc3)c(=O)oc12 category_label=inactive
compound=COc1cc2c(cc1OC)CN(C(=O)CSc1n[nH]c(N)n1)CC2 category_label=inactive
compound=COc1cc2c(cc1OC)CN(C(=O)CSc1nnc(C)s1)CC2 category_label=active
compound="NS(=O)(=O)c1cccc(NC(=O)COC(=O)CC2CC3CCC2C3)c1 (stereo unspecified)" category_label=inactive

Okay, next one:
q: For this compound, state the assay outcome: Cc1c(NC(=O)CN2C(=O)NC3(CCCCC3)C2=O)c(=O)n(-c2ccccc2)n1C
a: inactive

====

ASSAYED_SYSTEM: Aminopeptidase N (Plasmodium falciparum (isolate 3D7))
EXPERIMENT_NOTES: malaria alanyl aminopeptidase activity blockers – biochemical, fluorogenic H-Leu-NHMec substrate, 1536-well (AID 1445);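 also: plate controls were DMSO full reaction for no effect and no enzyme background for full effect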
TEST_PARAMETERS: recombinant M1AAP, H-Leu-NHMec fluorogenic kinetic assay; at 30 µM, hits give high values unless noted
The whole screen tested about 220,000 compounds, of which about 910 (0.41%) were called active. The sample as a whole holds a higher share of actives than the screen did. Potency and affinity values are given separately.
Reported inhibition values are given for each entry in this list.

Guide cases for inhibition, answers given:
compound="O=C1NCCCC1C(=O)N/N=C/c1ccccc1O (stereo not given)" recorded_result="9.72% (inactive)"
compound="COc1ccc(N=C2S/C(=C\\c3ccc(OC(C)C(=O)O)c(OC)c3)C(=O)N2CCc2c[nH]c3ccccc23)cc1 (stereo not given)" recorded_result="31.6% (inactive)"
compound="CC1=NN(c2nc(-c3ccc(C)cc3)cs2)C(=O)C1N=Nc1ccc2ccccc2c1 (stereo not given)" recorded_result="-4.56% (inactive)"
compound=N#CC(C#N)=C1C=CC=CN1/C(=C\c1ccco1)C(=O)c1ccc(Cl)cc1 recorded_result="17.2% (inactive)"
compound="CC1=NN(c2nc(-c3ccc(C)cc3)cs2)C(=O)C1N=Nc1cccc(O)c1 (stereo not given)" recorded_result="6.79% (inactive)"

q: Which measured inhibition value corresponds to N#CC(C#N)=C1C=CC=CN1/C(=C\c1ccco1)C(=O)c1ccc(-c2ccccc2)cc1 ?
a: 18.3% (inactive)

q: Which measured inhibition value corresponds to Cn1nnnc1Sc1c(Cl)cccc1[N+](=O)[O-] ?
a: -3.63% (inactive)

q: Which measured inhibition value corresponds to Nc1ccccc1SCc1ccccc1Cl ?
a: 1.31% (inactive)

q: Which measured inhibition value corresponds to Cc1nc(CNC(=O)c2cc(COc3ccc(F)cc3Cl)on2)cs1 ?
a: 3.28% (inactive)

q: Which measured inhibition value corresponds to COc1cccc(NC(=O)C2CCCN2C(=O)Nc2cccc(F)c2)c1 (stereo not given) ?
a: 14.7% (inactive)

Hey, just so you know, these numbers are from PubChem BioAssay AID1445.
